Recorded values, source patent US20040186288A1.

Documented pIC50 across a set of molecules
test_system: KDR (VEGFR II) (Homo sapiens, UniProt P35968)
Sequence (P35968 20-1356, species assumed): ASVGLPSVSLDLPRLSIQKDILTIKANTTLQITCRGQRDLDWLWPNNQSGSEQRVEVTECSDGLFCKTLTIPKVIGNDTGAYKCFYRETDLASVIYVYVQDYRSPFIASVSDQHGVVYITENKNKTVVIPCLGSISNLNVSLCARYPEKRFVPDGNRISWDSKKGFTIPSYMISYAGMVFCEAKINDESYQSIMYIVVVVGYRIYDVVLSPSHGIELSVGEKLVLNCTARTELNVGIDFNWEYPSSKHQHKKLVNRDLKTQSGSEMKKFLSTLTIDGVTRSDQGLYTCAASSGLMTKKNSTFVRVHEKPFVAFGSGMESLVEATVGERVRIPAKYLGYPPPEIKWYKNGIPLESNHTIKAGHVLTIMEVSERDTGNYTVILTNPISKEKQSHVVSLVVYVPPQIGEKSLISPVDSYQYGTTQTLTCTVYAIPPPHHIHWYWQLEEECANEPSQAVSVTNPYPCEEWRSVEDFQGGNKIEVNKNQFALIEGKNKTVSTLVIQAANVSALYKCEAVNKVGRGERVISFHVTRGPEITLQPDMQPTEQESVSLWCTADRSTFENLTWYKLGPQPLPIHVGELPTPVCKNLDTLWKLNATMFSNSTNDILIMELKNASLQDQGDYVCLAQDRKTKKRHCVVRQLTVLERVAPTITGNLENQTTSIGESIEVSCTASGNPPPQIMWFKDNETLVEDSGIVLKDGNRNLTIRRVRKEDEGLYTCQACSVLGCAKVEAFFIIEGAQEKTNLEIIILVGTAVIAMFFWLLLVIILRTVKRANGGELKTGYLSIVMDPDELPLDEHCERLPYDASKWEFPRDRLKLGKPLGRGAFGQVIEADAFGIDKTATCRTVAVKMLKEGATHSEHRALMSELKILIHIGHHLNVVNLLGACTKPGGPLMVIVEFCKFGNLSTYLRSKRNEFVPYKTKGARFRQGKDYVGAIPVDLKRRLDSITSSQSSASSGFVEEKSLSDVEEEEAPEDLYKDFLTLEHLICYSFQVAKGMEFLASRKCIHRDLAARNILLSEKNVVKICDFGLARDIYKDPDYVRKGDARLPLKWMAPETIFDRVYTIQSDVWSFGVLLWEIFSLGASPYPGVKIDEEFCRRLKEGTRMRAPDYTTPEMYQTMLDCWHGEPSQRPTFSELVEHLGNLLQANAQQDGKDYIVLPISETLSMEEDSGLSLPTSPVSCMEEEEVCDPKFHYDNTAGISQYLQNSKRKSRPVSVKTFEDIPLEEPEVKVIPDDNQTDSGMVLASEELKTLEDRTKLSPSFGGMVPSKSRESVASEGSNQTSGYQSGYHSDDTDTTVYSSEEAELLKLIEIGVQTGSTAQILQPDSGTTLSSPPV
pIC50: −log10 of the molar value.
recorded_metric: pIC50

smiles_code	recorded_metric	reported_measurement
Cc1cc(C(F)(F)F)cc(-n2nc(Nc3cccnc3)nc2N)n1	pIC50	8.00
Nc1nc(Nc2cnc3ncccc3c2)nn1-c1ccccn1	pIC50	7.52
COc1ccc(Nc2nc(N)n(-c3ccccn3)n2)cn1	pIC50	7.30
Nc1nc(Nc2cnc3ccccc3c2)nn1-c1ccccn1	pIC50	7.70
Nc1nc(Nc2cccnc2)nn1-c1ncccc1C(F)(F)F	pIC50	7.52

====

molecule	melting point [°C]
Nc1nc(Nc2cnc3ccccc3c2)nn1-c1ccccn1 [Example 10]	225
Nc1nc(Nc2cccnc2)nn1-c1ccccc1 [Example 8]	223
Nc1nc(Nc2cccnc2)nn1-c1ccc2ccccc2c1 [Example 5]	247
Cc1cc(C(F)(F)F)cc(-n2nc(Nc3cccnc3)nc2N)n1 [Example 3]	212
Nc1nc(Nc2cccnc2)nn1-c1ccc(C(F)(F)F)cn1 [Example 6]	254
Nc1nc(Nc2cccnc2)nn1-c1nccc2ccccc12 [Example 13]	246
Cc1ccc(Nc2nc(N)n(-c3ccccn3)n2)c(C)n1 [Example 21]	191
COc1ccc(Nc2nc(N)n(-c3ccccn3)n2)c(OC)n1 [Example 14]	159
COc1ncccc1Nc1nc(N)n(-c2ccccn2)n1 [Example 11]	169

====

Tested on: human MCF7 tumor cells
experiment_notes: Proliferation assay (crystal violet)
Assay type: cell-based
experimental_conditions: 96 h, 4 days incubation, read-out: MCF-7 IC50
pIC50: −log10 of the molar value.
Documented pIC50 across a set of molecules

smiles_code	censoring_qualifier	pIC50
Nc1nc(Nc2cccnc2)nn1-c1ccccn1	=	5.82
Nc1nc(Nc2cccnc2)nn1-c1ccc2ccccc2c1	=	5.70
Nc1nc(Nc2cccnc2)nn1-c1nccc2ccccc12	=	6.15
Cc1cc(C(F)(F)F)cc(-n2nc(Nc3cccnc3)nc2N)n1	<	5.00
COc1ccc(Nc2nc(N)n(-c3ccccn3)n2)cn1	<	5.00

====

molecule	melting point
Nc1nc(Nc2cncc3ccccc23)nn1-c1ccccn1 [Example 16]	287 °C
Nc1nc(Nc2cccnc2)nn1-c1cccnc1 [Example 7]	234 °C
Nc1nc(Nc2nccc3ccccc23)nn1-c1ccccn1 [Example 18]	278 °C
Nc1nc(Nc2ccc3ccccc3n2)nn1-c1ccccn1 [Example 19]	326 °C
Nc1nc(Nc2cncc(Br)c2)nn1-c1ccccn1 [Example 15]	285 °C
COc1ccc(Nc2nc(N)n(-c3ccccn3)n2)cn1 [Example 9]	237 °C
Nc1nc(Nc2cnc3ncccc3c2)nn1-c1ccccn1 [Example 17]	253 °C
Nc1nc(Nc2cnc3ccccc3c2)nn1-c1ccc2ccccc2n1 [Example 12]	249 °C
Nc1nc(Nc2cccnc2)nn1-c1ncccc1C(F)(F)F [Example 4]	255 °C
Nc1nc(Nc2cnccc2Cl)nn1-c1ccccn1 [Example 20]	193 °C
